Target or system PARP2 (Mus musculus (Mouse), UniProt O88554): recorded IC50 listed per item.

Per the reported PARP2 (Mus musculus (Mouse), UniProt O88554) data, "O=C(CN1CCC(C(=O)c2ccc(OCC3CC3)cc2)CC1)NCc1nc2c(c(=O)[nH]1)COCC2" has IC50 of 1.97 µM

Known value: PARP2 (Mus musculus (Mouse), UniProt O88554) IC50 of the compound "O=C(c1ccc(F)cc1)C1CCN(CC(=O)N(Cc2nc3c(c(=O)[nH]2)COCC3)Cc2ccccc2F)CC1" equals > 19 µM

I looked up "O=C(c1ccc(F)cc1)C1CCN(CC(=O)N(CCF)Cc2nc3c(c(=O)[nH]2)COCC3)CC1" and its IC50 for PARP2 (Mus musculus (Mouse), UniProt O88554) was > 19 µM

# lookup: "COc1ccc(C(=O)C2CCN(CC(=O)N(Cc3nc4c(c(=O)[nH]3)CCCC4)CC3CC3)CC2)cc1" on PARP2 (Mus musculus (Mouse), UniProt O88554), IC50 = 9.14 µM

Hey, PARP2 (Mus musculus (Mouse), UniProt O88554) data for CC(c1ccc(F)cc1F)N(Cc1nc2c(c(=O)[nH]1)COCC2)C(=O)CN1CCC(C(=O)c2ccc(F)cc2)CC1 (stereo not shown) : IC50 came out at > 19 µM

The measured IC50 that "O=C(CN1CCC(c2noc3cc(F)ccc23)CC1)NCc1nc2c(c(=O)[nH]1)COCC2" showed for PARP2 (Mus musculus (Mouse), UniProt O88554) is 3.09 µM

Reading of IC50 for "COc1cccc(C(=O)C2CCN(CC(=O)N(Cc3nc4c(c(=O)[nH]3)COCC4)CC(F)F)CC2)c1" with PARP2 (Mus musculus (Mouse), UniProt O88554): > 19 µM

* * *

Measured quantity: pIC50
Lab note: report pIC50 as minus log10 of the concentration in molar units, number only.

For "CC(C)N(Cc1nc2c(c(=O)[nH]1)COCC2)C(=O)CN1CCC(C(=O)c2ccc(F)cc2)CC1" on tankyrase 2 protein PARP domain, TNKS2P (Homo sapiens (Human), UniProt Q9H2K2), measured pIC50 was 7.70

Param item: "O=C(c1ccc(F)cc1)C1CCN(CC(=O)N(Cc2nc3c(c(=O)[nH]2)COCC3)C[C@@H]2CCCO2)CC1" ; param system: tankyrase 2 protein PARP domain, TNKS2P (Homo sapiens (Human), UniProt Q9H2K2); output pIC50: 8.00

Short answer on tankyrase 2 protein PARP domain, TNKS2P (Homo sapiens (Human), UniProt Q9H2K2) for "COc1cccc(C(=O)C2CCN(CC(=O)N(Cc3nc4c(c(=O)[nH]3)COCC4)CC(F)F)CC2)c1" , pIC50: 7.80

Case "COc1ccc(C(=O)C2CCN(CC(=O)NCc3nc(C)c(C)c(=O)[nH]3)CC2)cc1" , tankyrase 2 protein PARP domain, TNKS2P (Homo sapiens (Human), UniProt Q9H2K2), pIC50 recorded as 7.70

The value of pIC50 recorded for "COCCN(Cc1nc2c(c(=O)[nH]1)COCC2)C(=O)CN1CCC(C(=O)c2ccc(OC)cc2)CC1" when tested on tankyrase 2 protein PARP domain, TNKS2P (Homo sapiens (Human), UniProt Q9H2K2) reads 7.85

Case "COc1ccc(C(=O)C2CCN(CC(=O)NCc3nc4c(c(=O)[nH]3)CCCCC4)CC2)cc1" , tankyrase 2 protein PARP domain, TNKS2P (Homo sapiens (Human), UniProt Q9H2K2), pIC50 recorded as 6.45

The compound "CC[C@H](C)CN(Cc1nc2c(c(=O)[nH]1)COCC2)C(=O)CN1CCC(C(=O)c2ccc(F)cc2)CC1" , tested on tankyrase 2 protein PARP domain, TNKS2P (Homo sapiens (Human), UniProt Q9H2K2), showed pIC50 of 7.89

* * *

molecular target: tankyrase 2 protein PARP domain, TNKS2P (Homo sapiens (Human), UniProt Q9H2K2)
Sequence (Q9H2K2 959-1164): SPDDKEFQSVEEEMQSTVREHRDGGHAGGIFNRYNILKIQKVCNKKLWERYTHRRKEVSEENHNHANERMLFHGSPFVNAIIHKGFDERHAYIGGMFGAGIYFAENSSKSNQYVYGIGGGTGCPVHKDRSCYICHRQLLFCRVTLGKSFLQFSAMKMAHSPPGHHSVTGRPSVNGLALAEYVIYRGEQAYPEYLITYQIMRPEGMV
I'd be grateful if you could share measured IC50 for these entries.
Use nM as the unit, but write only the number.

The measured IC50 associated with "O=C(CN1CCC2(CC1)Cc1cc(F)ccc1C2=O)N(Cc1nc2c(c(=O)[nH]1)COCC2)CC1CC1" reads 4

IC50 recorded for this molecule, "O=C(CN1CCC(c2nnc(-c3ccc(F)cc3)o2)CC1)NCc1nc2c(c(=O)[nH]1)COCC2" , is 78

Reported IC50 for "CCOc1ccc(C(=O)C2CCN(CC(=O)NCc3nc4c(c(=O)[nH]3)COCC4)CC2)cc1F" was 16

Reported IC50 ( "O=C(c1ccc(F)cc1)C1CCN(CC(=O)N(Cc2ccc(F)cc2)Cc2nc3c(c(=O)[nH]2)COCC3)CC1" ) = 32

Recorded IC50 (molecule "Cc1ccc(C(=O)C2CCN(CC(=O)NCc3nc4c(c(=O)[nH]3)COCC4)CC2)cc1" ): 18

Reported IC50 for "COc1ccc(C(=O)C2CCN(CC(=O)NCc3nc4c(c(=O)[nH]3)CCC4)CC2)cc1" was 110

The molecule "COc1ccc2c(c1)CCCN2C(=O)C1CCN(CC(=O)NCc2nc3c(c(=O)[nH]2)COCC3)CC1" showed IC50 equal to 31200

# molecule "O=C(c1ccc(F)cc1)C1CCN(CC(=O)N(Cc2cccc(F)c2)Cc2nc3c(c(=O)[nH]2)COCC3)CC1" ; its IC50 = 21

Consider "O=C(CN1CCC(C(=O)c2ccc(OCC3CCC3)cc2)CC1)NCc1nc2c(c(=O)[nH]1)COCC2" . Its measured IC50 is 12

Per the records, this molecule ( "O=C(CN1CCC(C(=O)c2ccc(Cl)cc2)CC1)NCc1nc2c(c(=O)[nH]1)COCC2" ) has IC50 equal to 7

IC50 recorded for this molecule, "COc1ccc(C(=O)C2CCN(CC(=O)N(Cc3nc4c(c(=O)[nH]3)COCC4)CC(F)F)CC2)cc1" , is 12

Per the record, "O=C(c1ccc(F)cc1)C1CCN(CC(=O)N(Cc2nc3c(c(=O)[nH]2)COCC3)CC(F)F)CC1" has IC50 of 10.2

"O=C(c1ccc(OC(F)(F)F)cc1)C1CCN(CC(=O)N(Cc2nc3c(c(=O)[nH]2)COCC3)CC2CC2)CC1" yielded IC50 of 8

Looking up "O=C(CN1CCC(n2c(=O)[nH]c3ccccc32)CC1)NCc1nc2c(c(=O)[nH]1)COCC2" , I found its IC50 recorded as 39

IC50 in this record for "C[C@@H](c1ccccc1)N(Cc1nc2c(c(=O)[nH]1)COCC2)C(=O)CN1CCC(C(=O)c2ccc(F)cc2)CC1" : 50

Looking up "COCCN(Cc1nc2c(c(=O)[nH]1)COCC2)C(=O)CN1CCC(c2nnc(-c3ccccc3)o2)CC1" , I see its IC50 listed as 142

molecule "CC[C@H](C)N(Cc1nc2c(c(=O)[nH]1)COCC2)C(=O)CN1CCC(C(=O)c2ccc(F)cc2)CC1" , IC50 observed: 13

IC50 reading for "CC[C@@H](C)N(Cc1nc2c(c(=O)[nH]1)COCC2)C(=O)CN1CCC(C(=O)c2ccc(F)cc2)CC1" : 13

Entry "O=C(c1ccc(F)cc1)C1CCN(CC(=O)N(Cc2nc3c(c(=O)[nH]2)COCC3)CC(F)(F)F)CC1" , IC50 reported as 14

Memo: "C[C@H](c1ccccc1)N(Cc1nc2c(c(=O)[nH]1)COCC2)C(=O)CN1CCC(C(=O)c2ccc(F)cc2)CC1" , reported IC50: 16

In plain terms, "C[C@@H](c1ccc(F)cc1)N(Cc1nc2c(c(=O)[nH]1)COCC2)C(=O)CN1CCC(C(=O)c2ccc(F)cc2)CC1" has a documented IC50 of 68

IC50 reported for this molecule "O=C(CN1CCC(C(=O)c2ccc(OC3CCOCC3)cc2)CC1)NCc1nc2c(c(=O)[nH]1)COCC2" : 29

"O=C(c1ccc(F)cc1)C1CCN(CC(=O)N(Cc2ccncc2)Cc2nc3c(c(=O)[nH]2)COCC3)CC1" has a reported IC50 of 206

The reported value for "N#Cc1ccc(CN(Cc2nc3c(c(=O)[nH]2)COCC3)C(=O)CN2CCC(C(=O)c3ccc(F)cc3)CC2)s1" in terms of IC50 is 16

So for "COc1ccc(CN(Cc2nc3c(c(=O)[nH]2)COCC3)C(=O)CN2CCC(C(=O)c3ccc(F)cc3)CC2)cc1" , the logged IC50 turned out to be 15

The molecule "COc1ccc(-c2nnc(C3CCN(CC(=O)NCc4nc5c(c(=O)[nH]4)COCC5)CC3)o2)cc1" showed IC50 equal to 89

Looking up "O=C(c1ccc(F)cc1)C1CCN(CC(=O)N(Cc2nc3c(c(=O)[nH]2)COCC3)Cc2ccc(F)cc2F)CC1" , I found its IC50 recorded as 14

IC50 reading for "O=C(c1ccc(C(F)(F)F)cc1)C1CCN(CC(=O)N(Cc2nc3c(c(=O)[nH]2)COCC3)CC(F)F)CC1" : 17

Looking up "C[C@@H](C1CC1)N(Cc1nc2c(c(=O)[nH]1)COCC2)C(=O)CN1CCC(C(=O)c2ccc(F)cc2)CC1" , I see its IC50 listed as 10

Data provenance is patent US9181266B2.
